Data origin, for the record: PubChem BioAssay AID1159580

# assay remarks: chemical genetic growth profiling, strain panel (AID 1159580);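 also: tested at 20 µM; growth read once vehicle control cultures reached saturation at 30 °C; 1 = growth at the plate median or of vehicle wells; lower values mean less growth of the strain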
# condition parameters: S. cerevisiae deletion strains, growth OD, locus YGL227W, strain vid30, active compounds read low
Hit rate of the full screen: of about 5,500 compounds, about 2,000 (36%) were called active. Not shown: some 18% with an inconclusive outcome. Some of the results follow.
// returns false unless normalized growth is strictly below 1, in which case true

Request: In the record for COc1ccc2c(c1)OCC(Cc1ccc(OC)c(O)c1)C2=O (stereo not given) , is normalized growth less than 1?
Response: true

Request: In the record for NC(N)=NCCN1CCCCCCC1 , is normalized growth less than 1?
Response: false

----------
# assay remarks: chemical genetic growth profiling, strain panel (AID 1159580);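 also: tested at 20 µM; growth read once vehicle control cultures reached saturation at 30 °C; 1 = growth at the plate median or of vehicle wells; lower values mean less growth of the strain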
# condition parameters: S. cerevisiae deletion strains, growth OD, locus YLR342W, strain FKS1 (second series), active compounds read low
The campaign covered roughly 5,500 compounds. About 2,000 (36%) were called active. Roughly 18% stayed inconclusive and do not appear here. The list shows a part of the results.
// returns class 0 unless normalized growth is strictly below 1, in which case class 1

Request: In the record for COc1ccc2c(c1)OCC(Cc1ccc(OC)c(O)c1)C2=O (stereo not given) , is normalized growth less than 1?
Response: class 1

Request: In the record for O=C(O)C(O)C(O)C(=O)O (stereo not given) , is normalized growth less than 1?
Response: class 0

Request: In the record for O=C(O)COc1ccc(Cl)cc1Cl , is normalized growth less than 1?
Response: class 0

Request: In the record for COc1ccc2c(=O)c(OC)c(-c3ccccc3)oc2c1 , is normalized growth less than 1?
Response: class 1

Request: In the record for COc1ccc(CCC(=O)c2c(O)cc(O[C@@H]3O[C@H](CO)C(O)[C@H](O)C3O[C@@H]3O[C@@H](C)[C@H](O)[C@@H](O)[C@H]3O)cc2O)cc1O (stereo not given in full) , is normalized growth less than 1?
Response: class 0

Request: In the record for CN[C@@H]1C(OC2[C@H](O[C@H]3[C@H](O)[C@@H](O)[C@H](N=C(N)N)[C@@H](O)[C@@H]3N=C(N)N)OC(C)[C@]2(O)CO)OC(CO)C(O)C1O (stereo not given in full) , is normalized growth less than 1?
Response: class 0

Request: In the record for O=C(O)CCCCCCCC(=O)O , is normalized growth less than 1?
Response: class 0

Request: In the record for CC(=O)NCCc1c[nH]c2ccc(O)cc12 , is normalized growth less than 1?
Response: class 0

Request: In the record for CC(=O)O[C@H]1C[C@@]2(C)[C@@H](C[C@@H](O)C3[C@]2(C)CC[C@H]2[C@H](C)[C@H](O)CC[C@]32C)/C1=C(/CCC=C(C)C)C(=O)O (stereo not given in full) , is normalized growth less than 1?
Response: class 0

Request: In the record for O=C1CCCCC/C=C/CCCCCCCCO1 , is normalized growth less than 1?
Response: class 1

Request: In the record for CN=C(N)NCCCC(N)C(=O)O (stereo not given) , is normalized growth less than 1?
Response: class 0

Request: In the record for CC(C)(S)[C@@H](N)C(=O)O , is normalized growth less than 1?
Response: class 0

Request: In the record for COc1c(C)c2c(c(O)c1C/C=C(\C)CCC(=O)O)C(=O)OC2 , is normalized growth less than 1?
Response: class 1

Request: In the record for C[C@@H]1CC[C@H]2C(C)(C)C3CC12CC[C@@]3(C)O (stereo not given in full) , is normalized growth less than 1?
Response: class 1

Request: In the record for COc1ccc2oc3ccccc3c(=O)c2c1 , is normalized growth less than 1?
Response: class 1

Request: In the record for NCCCCCC(=O)O , is normalized growth less than 1?
Response: class 1

Request: In the record for CC(C)c1nc(N(C)S(C)(=O)=O)nc(-c2ccc(F)cc2)c1/C=C/[C@@H](O)C[C@@H](O)CC(=O)O , is normalized growth less than 1?
Response: class 0

Request: In the record for NC(N)=NCCCCN=C(N)N , is normalized growth less than 1?
Response: class 0

Request: In the record for CC12CCC3C(=CCc4cc(O)ccc43)C1CCC2=O (stereo not given) , is normalized growth less than 1?
Response: class 1

Request: In the record for C[C@]12CCC3c4ccc(O)cc4CCC3C1CCC2=O (stereo not given in full) , is normalized growth less than 1?
Response: class 1

Request: In the record for COC(=O)[C@@H]1OC(=O)C2OC23[C@@]1(C)CCC1[C@@]2(C)CCC(=O)C(C)(C)C2C[C@@H](OC(C)=O)[C@]13C (stereo not given in full) , is normalized growth less than 1?
Response: class 0

Request: In the record for Clc1ccc(COC(Cn2ccnc2)c2ccc(Cl)cc2Cl)cc1 (stereo not given) , is normalized growth less than 1?
Response: class 1

Request: In the record for CN(C)C(=O)Oc1ccc[n+](C)c1 , is normalized growth less than 1?
Response: class 0

Request: In the record for CC(=O)O[C@@H]1CC2C(C)(C)[C@H](O)CC[C@]2(C)C2CC[C@@]3(C)[C@H](c4ccoc4)OC(=O)C4OC43[C@@]21C (stereo not given in full) , is normalized growth less than 1?
Response: class 0

Request: In the record for Clc1ccc(COC(Cn2ccnc2)c2ccc(Cl)cc2Cl)c(Cl)c1 (stereo not given) , is normalized growth less than 1?
Response: class 1

Request: In the record for NC1(C(=O)O)CC1 , is normalized growth less than 1?
Response: class 0

Request: In the record for C[C@]12CCC3C(CC[C@H]4C[C@@H](O)CC[C@]34C)C1CC[C@@H]2O (stereo not given in full) , is normalized growth less than 1?
Response: class 1

Request: In the record for CC(=O)OC1CC(OC(C)=O)C2(C)C(CC(OC(C)=O)C3(C)C2CCC2(C)C(c4ccoc4)OC(=O)C4OC423)C1(C)C (stereo not given) , is normalized growth less than 1?
Response: class 1

----------
Kindly supply the reported normalized growth values for the records listed here.
# assay remarks: chemical genetic growth profiling, strain panel (AID 1159580);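 also: tested at 20 µM; growth read once vehicle control cultures reached saturation at 30 °C; 1 = growth at the plate median or of vehicle wells; lower values mean less growth of the strain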
# condition parameters: S. cerevisiae deletion strains, growth OD, locus YOR083W, strain WHI5, active compounds read low
Among all 5,500 compounds or so, about 2,000 (36%) were called active. Not shown: some 18% with an inconclusive outcome. This is one part of the list. Where a SMILES comes first, the peptide text is derived from it.
# respond with the number and nothing more

Request: Tell me the measured normalized growth of NC(N)=NCCCCN=C(N)N , please.
Response: 1.04

Request: Tell me the measured normalized growth of C=NC(C(=O)NC1C(=O)N2C1SC(C)(C)C2C(=O)O)c1ccccc1 (stereo not given) , please.
Response: 0.989

Request: Tell me the measured normalized growth of CN[C@@H]1C(OC2[C@H](O[C@H]3[C@H](O)[C@@H](O)[C@H](N=C(N)N)[C@@H](O)[C@@H]3N=C(N)N)OC(C)[C@]2(O)CO)OC(CO)C(O)C1O (stereo not given in full) , please.
Response: 0.998

Request: Tell me the measured normalized growth of CC(=O)N[C@@H](CCC(=O)O)C(=O)O , please.
Response: 1.03

Request: Tell me the measured normalized growth of CC(=O)N[C@@H](CC(=O)O)C(=O)N[C@@H](CCC(=O)O)C(=O)O (Ac-Asp-Glu-OH) , please.
Response: 1.01

Request: Tell me the measured normalized growth of NC(N)=NCCN1CCCCCCC1 , please.
Response: 1.03

Request: Tell me the measured normalized growth of Cc1cc(/C=C/c2ccc3cc(N(C)C)ccc3[n+]2C)c(C)n1-c1ccccc1 , please.
Response: 0.804

Request: Tell me the measured normalized growth of C[C@@H]1CC2C3CCC4=CC(=O)C=C[C@]4(C)[C@@]3(F)[C@@H](O)C[C@]2(C)[C@@]1(O)C(=O)CO (stereo not given in full) , please.
Response: 0.968

Request: Tell me the measured normalized growth of CCCNC(=O)NS(=O)(=O)c1ccc(Cl)cc1 , please.
Response: 1.01

Request: Tell me the measured normalized growth of CC12CCCCC1(Br)[N+](=O)N2[O-] (stereo not given) , please.
Response: 0.895

----------
# assay remarks: chemical genetic growth profiling, strain panel (AID 1159580);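 also: tested at 20 µM; growth read once vehicle control cultures reached saturation at 30 °C; 1 = growth at the plate median or of vehicle wells; lower values mean less growth of the strain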
# condition parameters: S. cerevisiae deletion strains, growth OD, locus YGL240W, strain doc1, active compounds read low
In all, about 5,500 compounds went through this assay and about 2,000 (36%) were called active. Not shown: some 18% with an inconclusive outcome. Some of the results follow.
Kindly supply the reported normalized growth values for the records listed here.
# respond with the number and nothing more

Request: Tell me the measured normalized growth of Cc1cccc(C)c1NC(=O)C1CCCCN1C (stereo not given) , please.
Response: 0.981

Request: Tell me the measured normalized growth of COC1C=CC23c4cc5c(cc4CN(CC2O)[C@@H]3C1)OCO5 (stereo not given in full) , please.
Response: 0.999

Request: Tell me the measured normalized growth of Clc1ccc(CO/N=C(/Cn2ccnc2)c2ccc(Cl)cc2Cl)c(Cl)c1 , please.
Response: 0.108

Request: Tell me the measured normalized growth of Clc1ccc(CSC(Cn2ccnc2)c2ccc(Cl)cc2Cl)cc1 (stereo not given) , please.
Response: 0.0922

Request: Tell me the measured normalized growth of Clc1ccc(C(Cn2ccnc2)OCc2ccsc2Cl)c(Cl)c1 (stereo not given) , please.
Response: 0.0751

Request: Tell me the measured normalized growth of C[C@]12C=CC(=O)C=C1CCC1C2[C@@H](O)C[C@@]2(C)C1CC[C@]2(O)C(=O)CO (stereo not given in full) , please.
Response: 0.99

Request: Tell me the measured normalized growth of NC1(C(=O)O)CC1 , please.
Response: 1.01

Request: Tell me the measured normalized growth of CCC(C)C(=O)c1c(O)c(C)c2oc3c(C)c(O)c(C(=O)C(C)CC)c(O)c3c2c1O (stereo not given) , please.
Response: 0.949

Request: Tell me the measured normalized growth of COC(=O)[C@@H]1OC(=O)C2OC23[C@@]1(C)CCC1[C@]2(C)C(C[C@@H](O)[C@]13C)C(C)(C)[C@H](OC(C)=O)C[C@@H]2OC(C)=O (stereo not given in full) , please.
Response: 1

Request: Tell me the measured normalized growth of Clc1ccc(C(c2ccccc2Cl)C(Cl)Cl)cc1 (stereo not given) , please.
Response: 0.925

Request: Tell me the measured normalized growth of FC(F)(F)c1cccc(N2CCNCC2)c1 , please.
Response: 0.962

Request: Tell me the measured normalized growth of CN[C@@H]1C(OC2[C@H](O[C@H]3[C@H](O)[C@@H](O)[C@H](N=C(N)N)[C@@H](O)[C@@H]3N=C(N)N)OC(C)[C@]2(O)CO)OC(CO)C(O)C1O (stereo not given in full) , please.
Response: 1.01

Request: Tell me the measured normalized growth of COc1ccc2oc3ccccc3c(=O)c2c1 , please.
Response: 0.785

Request: Tell me the measured normalized growth of NCCCCC(=O)O , please.
Response: 1.03

Request: Tell me the measured normalized growth of CN(C/C=C/C#CC(C)(C)C)Cc1cccc2ccccc12 , please.
Response: 0.459

Request: Tell me the measured normalized growth of CC(=O)Oc1c2c(c(CC=C(C)C)c3c1C(=O)C1=C[C@@H]4CC5C(C)(C)OC(C/C=C(\C)C(=O)O)(C4=O)[C@@]15O3)OC(C)(CCC=C(C)C)C=C2 (stereo not given in full) , please.
Response: 0.983

Request: Tell me the measured normalized growth of C=C[C@@]1(C)CC(=O)[C@@]2(O)[C@](C)(O1)[C@@H](OC(C)=O)[C@@H](O)C1C(C)(C)CC[C@H](O)[C@@]12C (stereo not given in full) , please.
Response: 0.98

Request: Tell me the measured normalized growth of O=C(O)CCCCCCCC(=O)O , please.
Response: 1.01

Request: Tell me the measured normalized growth of c1ccc2c(CC3=NCCN3)cccc2c1 , please.
Response: 0.98

Request: Tell me the measured normalized growth of COC(=O)[C@@H]1OC(=O)C2OC23[C@@]1(C)CCC1[C@@]2(C)CCC(=O)C(C)(C)C2C[C@@H](OC(C)=O)[C@]13C (stereo not given in full) , please.
Response: 1.02
